target of assay: T1, NPY2 receptor (human (printed as hNPY2R), UniProt P49146 1-381)
T1 sequence (looked up): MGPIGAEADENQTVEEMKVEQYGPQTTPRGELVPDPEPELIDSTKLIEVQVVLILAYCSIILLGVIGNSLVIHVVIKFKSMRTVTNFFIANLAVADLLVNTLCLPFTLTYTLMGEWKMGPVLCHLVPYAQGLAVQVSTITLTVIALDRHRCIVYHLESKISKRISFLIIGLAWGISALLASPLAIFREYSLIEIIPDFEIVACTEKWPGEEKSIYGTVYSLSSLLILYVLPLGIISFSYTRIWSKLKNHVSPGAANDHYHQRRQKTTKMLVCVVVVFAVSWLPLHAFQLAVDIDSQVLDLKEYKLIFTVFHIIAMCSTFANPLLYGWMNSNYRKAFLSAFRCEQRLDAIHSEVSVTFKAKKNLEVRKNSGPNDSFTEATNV
experiment description: cell-based or functional assay
Non-standard residues stand in square brackets, D forms with d. No end group written: not given here. Aib = CC(C)(N)C(=O)O
experimental endpoint: EC50 hNPY2R 100% hP (CreLuc) (nM)
Number in nM, nothing else.

As a guide, the following entries are already answered.
YXEGTFTSDYSIXLEKQAQXAFVEWLIKGGPSSPASLRHYYNWLTRQRY (Aib at 2, 13, 20; K28 side chain carries C18DA-gGlu-gGlu-gGlu-gGlu-gGlu; C-terminal amide) [Compound 180] ... 107
Y[Aib]EGTFTSDYSI[Aib]LEKQAQ[Aib]EFVEWLIKGGPSSGASLRHYYNWLTRQRY-NH2 (not fully specified (residue 28); also: TFA salt) [Compound 198] ... 69.9

--- query ---
Req: Data request, read-out EC50 hNPY2R 100% hP (CreLuc), for YXEGTFTSDYSIXLEKQAQXAFVEWLIKGGPSEGQSLRHYYNWLTRQRY (Aib at 2, 13, 20; K28 side chain carries C20DA-gGlu-gGlu-gGlu-gGlu-gGlu-gGlu-eLys; C-terminal amide) [Compound 227]
Resp: 44.2
